I'd be grateful if you could share measured EC50 for these entries.
molecular target: F508delCFTR (Homo sapiens, UniProt P13569, DEL508-508); construct: expressed in transfected cells; host or cells: CFBE41o- human lung derived epithelial cells (CFBE41o-F508delCFTR-HRP), doxycycline-inducible; assay: Cell Surface Expression-Horse Radish Peroxidase (CSE-HRP) Assay; format: cell-based; details: with co-corrector; read-out: EC50 (with co-corrector);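 further: co-corrector chromenyl benzoic acid corrector at 2 or 3 µM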
Sequence (P13569 with tags, fused parts or gaps DEL508-508): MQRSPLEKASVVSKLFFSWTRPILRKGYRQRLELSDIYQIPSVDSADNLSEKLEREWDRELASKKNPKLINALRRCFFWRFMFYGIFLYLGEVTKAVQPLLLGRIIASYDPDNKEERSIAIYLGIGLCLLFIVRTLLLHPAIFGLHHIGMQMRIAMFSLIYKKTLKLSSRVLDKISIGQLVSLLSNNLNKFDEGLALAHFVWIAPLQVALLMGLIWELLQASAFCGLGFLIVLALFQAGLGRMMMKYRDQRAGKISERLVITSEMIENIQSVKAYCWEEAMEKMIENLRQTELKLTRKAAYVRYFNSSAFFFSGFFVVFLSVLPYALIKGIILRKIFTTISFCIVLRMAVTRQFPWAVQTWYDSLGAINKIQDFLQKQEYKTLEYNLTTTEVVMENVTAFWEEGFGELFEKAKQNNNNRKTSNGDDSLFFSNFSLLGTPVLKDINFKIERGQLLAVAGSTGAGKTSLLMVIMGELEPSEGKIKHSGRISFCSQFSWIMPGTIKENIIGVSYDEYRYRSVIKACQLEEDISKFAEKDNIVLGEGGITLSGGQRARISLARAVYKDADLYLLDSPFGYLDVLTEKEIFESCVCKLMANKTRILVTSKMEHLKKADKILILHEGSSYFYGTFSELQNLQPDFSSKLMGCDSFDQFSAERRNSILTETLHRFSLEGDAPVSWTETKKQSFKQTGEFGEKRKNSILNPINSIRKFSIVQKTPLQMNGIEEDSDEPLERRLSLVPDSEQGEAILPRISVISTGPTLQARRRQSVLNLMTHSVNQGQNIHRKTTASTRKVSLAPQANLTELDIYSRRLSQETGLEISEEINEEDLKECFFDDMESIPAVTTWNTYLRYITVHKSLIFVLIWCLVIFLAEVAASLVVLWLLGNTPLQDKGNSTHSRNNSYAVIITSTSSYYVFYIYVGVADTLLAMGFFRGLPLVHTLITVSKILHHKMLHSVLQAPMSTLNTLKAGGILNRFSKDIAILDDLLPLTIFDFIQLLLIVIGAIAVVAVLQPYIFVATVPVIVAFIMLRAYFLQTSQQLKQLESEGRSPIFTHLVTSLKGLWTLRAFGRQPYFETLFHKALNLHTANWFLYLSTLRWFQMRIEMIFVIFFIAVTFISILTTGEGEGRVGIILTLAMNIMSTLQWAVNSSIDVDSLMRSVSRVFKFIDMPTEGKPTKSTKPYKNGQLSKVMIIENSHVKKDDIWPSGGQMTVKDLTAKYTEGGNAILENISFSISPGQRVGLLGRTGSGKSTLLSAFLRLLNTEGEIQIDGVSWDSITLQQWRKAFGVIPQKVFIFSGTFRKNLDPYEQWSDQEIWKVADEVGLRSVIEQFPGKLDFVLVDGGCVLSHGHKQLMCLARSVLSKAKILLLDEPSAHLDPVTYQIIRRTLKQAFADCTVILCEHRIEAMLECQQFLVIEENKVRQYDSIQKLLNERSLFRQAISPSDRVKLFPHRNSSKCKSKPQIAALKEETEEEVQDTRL

q: Given CCOc1ccc(C)cc1C1(C(=O)NS(=O)(=O)c2cccc3[nH]ncc23)CC1 , report its EC50 on F508delCFTR (Homo sapiens, UniProt P13569, DEL508-508).
a: < 3 µM

q: Given Cc1ccc2c(S(=O)(=O)NC(=O)C3(c4cc(C5CCC5)cnc4OC(C)C)CC3)cccc2n1 , report its EC50 on F508delCFTR (Homo sapiens, UniProt P13569, DEL508-508).
a: < 3 µM

q: Given CCc1cccc(OC)c1C1(C(=O)NS(=O)(=O)c2cccc3[nH]ncc23)CC1 , report its EC50 on F508delCFTR (Homo sapiens, UniProt P13569, DEL508-508).
a: < 3 µM

q: Given COc1ncc(C2CCC2)cc1C1(C(=O)NS(=O)(=O)c2cccc3ccn(C)c23)CC1 , report its EC50 on F508delCFTR (Homo sapiens, UniProt P13569, DEL508-508).
a: < 3 µM

q: Given COc1ccc(C2CC2)cc1C1(C(=O)NS(=O)(=O)c2cccc3nc(C)ccc23)CC1 , report its EC50 on F508delCFTR (Homo sapiens, UniProt P13569, DEL508-508).
a: < 3 µM

q: Given CCOc1ccc(C(C)(C)COC)cc1C1(C(=O)NS(=O)(=O)c2cccc3nc(C)ccc23)CC1 , report its EC50 on F508delCFTR (Homo sapiens, UniProt P13569, DEL508-508).
a: < 3 µM

q: Given COc1cc(C2CCC2)cc(OC)c1C1(C(=O)NS(=O)(=O)c2cccc3nc(C)ccc23)CC1 , report its EC50 on F508delCFTR (Homo sapiens, UniProt P13569, DEL508-508).
a: < 3 µM

q: Given CCc1ccc(OC)c(C2(C(=O)NS(=O)(=O)c3cccc4nc(C)ccc34)CC2)c1 , report its EC50 on F508delCFTR (Homo sapiens, UniProt P13569, DEL508-508).
a: < 3 µM

q: Given COc1ccc(OC2CCOC2)cc1C1(C(=O)NS(=O)(=O)c2cccc3ncccc23)CC1 (stereo not drawn) , report its EC50 on F508delCFTR (Homo sapiens, UniProt P13569, DEL508-508).
a: 3 to 10 µM

q: Given CC(C)Oc1cnc(C2CCC2)cc1C1(C(=O)NS(=O)(=O)c2cccc3[nH]ccc23)CC1 , report its EC50 on F508delCFTR (Homo sapiens, UniProt P13569, DEL508-508).
a: < 3 µM

q: Given O=C(NS(=O)(=O)c1cccc2ccccc12)C1(c2cccc(Br)c2)CC1 , report its EC50 on F508delCFTR (Homo sapiens, UniProt P13569, DEL508-508).
a: 3 to 10 µM

q: Given CCOCC(C)(C)c1ccc(OC)c(C2(C(=O)NS(=O)(=O)c3cccc4nc(C)ccc34)CC2)c1 , report its EC50 on F508delCFTR (Homo sapiens, UniProt P13569, DEL508-508).
a: < 3 µM

q: Given CCCS(=O)(=O)NC(=O)C1(c2cccc(OC)c2)CCOCC1 , report its EC50 on F508delCFTR (Homo sapiens, UniProt P13569, DEL508-508).
a: > 10 µM

q: Given O=C(NS(=O)(=O)c1cccc2ccccc12)C1(c2ccc3c(c2)OC(F)(F)O3)CC1 , report its EC50 on F508delCFTR (Homo sapiens, UniProt P13569, DEL508-508).
a: 3 to 10 µM

q: Given COc1c(Cl)cc(Cl)c(OC)c1C1(C(=O)NS(=O)(=O)c2cccc3ncccc23)CC1 , report its EC50 on F508delCFTR (Homo sapiens, UniProt P13569, DEL508-508).
a: < 3 µM

q: Given CCOC(C)(C)c1ccc(OC(F)F)c(C2(C(=O)NS(=O)(=O)c3cccc4ncccc34)CC2)c1 , report its EC50 on F508delCFTR (Homo sapiens, UniProt P13569, DEL508-508).
a: 3 to 10 µM

q: Given O=C(NS(=O)(=O)CCCCl)C1(c2ccc(Cl)cc2Cl)CC1 , report its EC50 on F508delCFTR (Homo sapiens, UniProt P13569, DEL508-508).
a: 3 to 10 µM

q: Given COc1ccc(C(F)(F)F)cc1C1(C(=O)NS(=O)(=O)c2cccc3ncccc23)CC1 , report its EC50 on F508delCFTR (Homo sapiens, UniProt P13569, DEL508-508).
a: < 3 µM
